# runDescription: Elimination experiment: monoPAP mixture by IV injection, analytes in whole blood
# Assay type: in vivo, Sprague-Dawley rats
# particulars: male, Sprague-Dawley, rat, in vivo; monoPAP IV dose, about 15 mg/kg each; PFCA product in whole blood; read-out: Half-life (converted)
metricName: Half-life (days)
Kindly answer with a numeric value in days, unit omitted.

What measured Half-life goes with O=C(O)C(F)(F)C(F)(F)C(F)(F)C(F)(F)C(F)(F)C(F)(F)C(F)(F)F ?
12

* * *

Consider the following compounds; for each one, report its Cmax.
# runDescription: Uptake experiment: monoPAP mixture by oral gavage, analytes in whole blood
# Format: in vivo, Sprague-Dawley rats
# particulars: male, Sprague-Dawley, rat, in vivo, po, 50 mg/kg; monoPAP gavage dose; whole blood; values in parentheses < LOQ but > LOD; read-out: Cmax
Kindly answer with a numeric value in ng/g, unit omitted.

What measured Cmax goes with O=C(O)C(F)(F)C(F)(F)C(F)(F)C(F)(F)C(F)(F)C(F)(F)F ?
9

What measured Cmax goes with O=C(O)C(F)(F)C(F)(F)C(F)(F)C(F)(F)C(F)(F)C(F)(F)C(F)(F)F ?
28
